Test system: A549
Assay: NCI tumour cell line growth inhibition, 48 h
Activity calls are given as the source filed them. Cut-off read from the data, not from the text of the source: active = GI50 up to about 1.1 µM and inactive = higher.
Choose the fitting class; nothing outside active, inactive is accepted.

Ask: Hi, sorry to bother you, what did the test record for COc1ccc2cc(C(=O)O)ccc2c1OC ?
Result: inactive

Ask: Hi, sorry to bother you, what did the test record for Cc1cc(C=O)c2c(=O)c3c(O)ccc(/C=C/C(C)C)c3oc2c1 ?
Result: inactive

Ask: Hi, sorry to bother you, what did the test record for Cc1c(/C=N/NC(=S)N2CCCCC2)c(=O)n(-c2ccccc2)n1C ?
Result: inactive

Ask: Hi, sorry to bother you, what did the test record for CCCCc1c2c(nc3c1CC/C(=C\c1ccccc1)C3=O)CCCC2 ?
Result: inactive

Ask: Hi, sorry to bother you, what did the test record for c1cnc2c(c1)ccc1cccnc12 ?
Result: inactive

Ask: Hi, sorry to bother you, what did the test record for COC(=O)CCC1=C(CC(=O)OC)C(C)(OC)N/C1=N/C(=O)OCc1ccccc1 (stereo unspecified) ?
Result: inactive

Ask: Hi, sorry to bother you, what did the test record for CCOC(=O)C(=O)Nc1cccc(Cl)c1C ?
Result: inactive

Ask: Hi, sorry to bother you, what did the test record for c1ccc(-c2nnc(-c3nsc4ccccc34)o2)cc1 ?
Result: inactive

Ask: Hi, sorry to bother you, what did the test record for CCC(C)(C)NS(=O)(=O)c1ccccc1 ?
Result: inactive

Ask: Hi, sorry to bother you, what did the test record for C=C1C(C)C2C(Cc3ccccc3)NC(=O)C23C(OC(C)=O)C=CC(C)(O)C(=O)C(C)C/C=C/C3C1O (stereo unspecified) ?
Result: active

Ask: Hi, sorry to bother you, what did the test record for CC(C)C(=O)/C=C/c1ccc(Cl)cc1 ?
Result: inactive

Ask: Hi, sorry to bother you, what did the test record for CC1(C)OC(CP(c2ccccc2)c2ccccc2)C(CP(c2ccccc2)c2ccccc2)O1 (stereo unspecified) ?
Result: active

Ask: Hi, sorry to bother you, what did the test record for Cn1cnc([N+](=O)[O-])c1Sc1nccn1-c1ccccc1 ?
Result: inactive

Ask: Hi, sorry to bother you, what did the test record for COc1cc2c(cc1C[N+](C)(C)CSc1ccccc1)-c1ccccc1CC2 ?
Result: inactive

Ask: Hi, sorry to bother you, what did the test record for COc1ccc(-c2cc(O)c3ccc(C)nc3n2)cc1 ?
Result: inactive

Ask: Hi, sorry to bother you, what did the test record for CN(C)CCCOCCn1c2c(c3ccccc31)CCCC2 ?
Result: inactive

====

Tested on: HOP-62
Assay: NCI tumour cell line growth inhibition, 48 h
Calls of active or inactive are those of the source. No stated cut-off is given here; in the data, active = GI50 up to about 1.1 µM and inactive = higher.
MEASUREMENT_KIND: GI50

Ask: Provide one value: measured GI50 of Cn1c(=O)nc2n(-c3ccc(Cl)cc3)c3ccc(Cl)cc3nc-2c1=O
Result: 18 µM (inactive)

Ask: Provide one value: measured GI50 of O=[N+]([O-])c1ccc(OCCNc2cccc3ccccc23)cc1
Result: > 100 µM (inactive)

Ask: Provide one value: measured GI50 of CCCCCCCCCCNC(=S)OCCCC
Result: 27.2 µM (inactive)

Ask: Provide one value: measured GI50 of O=C1Cc2c([nH]c3ccc(Br)cc23)-c2cc(O)c(O)cc2N1
Result: > 100 µM (inactive)

====

System: SK-MEL-28
Test: NCI tumour cell line growth inhibition, 48 h
Active and inactive are the calls of the source. Rule as the data show it: active = GI50 up to about 1.1 µM and inactive = higher.
Choose the fitting class; nothing outside 1 (active), 0 (inactive) is accepted.

Ask: Hi, sorry to bother you, what did the test record for O=C(Nc1ccc(C(F)(F)F)cc1[N+](=O)[O-])C(=O)C(C(=O)c1ccc2ccccc2c1)C1OC(=O)c2ccccc21 (stereo unspecified) ?
Result: 0

Ask: Hi, sorry to bother you, what did the test record for C[Si](C)(C)OC1(C#N)C2C3CC4C2C(=O)C2C4C3C21 (stereo unspecified) ?
Result: 0

Ask: Hi, sorry to bother you, what did the test record for O=C1c2ccccc2C(=O)N1NC1=NCCN1 ?
Result: 0

Ask: Hi, sorry to bother you, what did the test record for O=C(N/N=C/c1cccc(O)c1O)N/N=C/c1cccc(O)c1O ?
Result: 0

Ask: Hi, sorry to bother you, what did the test record for [N-]=[N+]=NCC1OC(n2cnc3c(N)ncnc32)C2OC12 (stereo unspecified) ?
Result: 0

Ask: Hi, sorry to bother you, what did the test record for Cc1cc2nc(N)n[n+]([O-])c2cc1C ?
Result: 0

Ask: Hi, sorry to bother you, what did the test record for CCOC(=O)Cc1c(C)c2cc(C(=O)c3ccccc3)c(O)cc2oc1=O ?
Result: 0

Ask: Hi, sorry to bother you, what did the test record for CS(=O)(=O)c1ccc(NNc2cc(=O)[nH]c(=O)[nH]2)cc1 ?
Result: 0

Ask: Hi, sorry to bother you, what did the test record for N/N=C(/C=C1\C(=O)Nc2ccccc21)c1ccccc1 ?
Result: 0

Ask: Hi, sorry to bother you, what did the test record for COc1cc2c(cc1O)C=NCC2 ?
Result: 0

Ask: Hi, sorry to bother you, what did the test record for O=C1CSC(c2cccc(Oc3ccccc3)c2)N1c1cccc(Cl)c1Cl (stereo unspecified) ?
Result: 0

Ask: Hi, sorry to bother you, what did the test record for COC(=O)c1ccccc1/C=C1\Cc2ccc(C)c(C)c2C1=O ?
Result: 0

Ask: Hi, sorry to bother you, what did the test record for O=c1[nH]nc(-c2ccccc2)n1-n1cccc1 ?
Result: 0

Ask: Hi, sorry to bother you, what did the test record for Cc1ccnc(NS(=O)(=O)c2ccc(NC3=CC(=O)C(=O)c4ccccc43)cc2)n1 ?
Result: 0

Ask: Hi, sorry to bother you, what did the test record for Cc1ccc([S+]([O-])CC(CF)OCn2cc(C)c(=O)[nH]c2=O)cc1 (stereo unspecified) ?
Result: 0

Ask: Hi, sorry to bother you, what did the test record for Cc1nn(C(=O)c2ccncc2)c2c1C(c1ccc([N+](=O)[O-])cc1)SC(=N)N2 (stereo unspecified) ?
Result: 0

Ask: Hi, sorry to bother you, what did the test record for CCN(CC)CCC(=O)c1ccc(Oc2ccccc2)cc1 ?
Result: 0

Ask: Hi, sorry to bother you, what did the test record for CCOC(=O)c1c(-c2ccccc2)nc2ccccc2c1O ?
Result: 0

Ask: Hi, sorry to bother you, what did the test record for CC1=C(C(=O)Nc2cc(F)c(F)cc2F)C(c2cccc([N+](=O)[O-])c2)C(C(=O)Nc2ccccc2C(F)(F)F)=C(C)N1 (stereo unspecified) ?
Result: 0

Ask: Hi, sorry to bother you, what did the test record for O=C1NC(=O)/C(=C/c2ccc(S(=O)(=O)N/N=C/c3ccc(Cl)cc3)cc2)N1 ?
Result: 0

Ask: Hi, sorry to bother you, what did the test record for Cc1cc2c3c(coc3c1-c1c(C)cc3c4c(coc14)C(=O)C(O)=C3C(C)C)C(=O)C(O)=C2C(C)C ?
Result: 0

Ask: Hi, sorry to bother you, what did the test record for C[C@]12CCCC(=O)C1C[C@H](C(=O)O)CC2 (stereo partly specified) ?
Result: 0

Ask: Hi, sorry to bother you, what did the test record for O=C1C2C3CC4C5C3C1C5C1(SCCS1)C42 (stereo unspecified) ?
Result: 0

Ask: Hi, sorry to bother you, what did the test record for N#CCCN(c1ccc(C=O)cc1)S(=O)(=O)c1ccccc1 ?
Result: 0

Ask: Hi, sorry to bother you, what did the test record for CCCCc1c2c(nc3c1CC/C(=C\c1ccccc1)C3=O)CCCC2 ?
Result: 0

Ask: Hi, sorry to bother you, what did the test record for COc1cc(O)c2c(=O)cc(C3(O)C=CC(=O)C=C3)oc2c1 ?
Result: 1

Ask: Hi, sorry to bother you, what did the test record for COc1ccc(-c2c(C#N)c(N)n(C3OC(CO)C(O)C(O)C3O)c(=S)c2C#N)cc1 (stereo unspecified) ?
Result: 0

Ask: Hi, sorry to bother you, what did the test record for c1ccc(-c2nnc(-c3nsc4ccccc34)o2)cc1 ?
Result: 0

Ask: Hi, sorry to bother you, what did the test record for Cc1nnc(Sc2nc(C#N)c(C#N)nc2Sc2nnc(C)s2)s1 ?
Result: 0

Ask: Hi, sorry to bother you, what did the test record for COC(=O)Cc1c([C@@]2(C)CCCC(C)(C)C2)ccc2c1C(=O)OC2 ?
Result: 0

Ask: Hi, sorry to bother you, what did the test record for CCOP1(=O)C=CC(Cl)=C(C)C1 (stereo unspecified) ?
Result: 0

Ask: Hi, sorry to bother you, what did the test record for NC(Cc1ccc(OCc2ccccc2)cn1)C(=O)OCc1ccccc1 (stereo unspecified) ?
Result: 0

Ask: Hi, sorry to bother you, what did the test record for Cc1ccc([N+](=O)[O-])c2c(NCCNC(=O)c3cc(C(=O)NCCNc4ccnc5c(C)ccc([N+](=O)[O-])c45)n(C)n3)ccnc12 ?
Result: 0

Ask: Hi, sorry to bother you, what did the test record for COc1ccc(CNc2cc(OC)cc(OC)c2)cc1 ?
Result: 0

Ask: Hi, sorry to bother you, what did the test record for CC(C)=C[C@H]1CCC2(OCCO2)[C@]1(C)CO ?
Result: 0

Ask: Hi, sorry to bother you, what did the test record for CC(C)(C)[Si](C)(C)OCC1CCC(n2cnc3c(=O)[nH]cnc32)O1 (stereo unspecified) ?
Result: 0

Ask: Hi, sorry to bother you, what did the test record for CCOC(=O)c1ccc(/N=N/N(C)C(=O)C(C)N)cc1 (stereo unspecified) ?
Result: 0

Ask: Hi, sorry to bother you, what did the test record for COc1cc2c(cc1OCCN1C(=O)c3cccc4cccc(c34)C1=O)N=C[C@@H]1CCCN1C2=O ?
Result: 0

Ask: Hi, sorry to bother you, what did the test record for COC(=O)/C(=N\NC(N)=O)C(C(=O)C(=O)Nc1ccccc1C(=O)OC)c1nc2ccc(C(=O)c3ccccc3)cc2nc1O (stereo unspecified) ?
Result: 0

Ask: Hi, sorry to bother you, what did the test record for CN(C)/C(N)=N\C#N ?
Result: 0

Ask: Hi, sorry to bother you, what did the test record for N=C(N)NS(=O)(=O)c1ccc(NNC(=O)c2cccc3c(O)c4ccccc4nc23)cc1 ?
Result: 0
